The reported measurements were obtained from PubChem BioAssay (NCI).

Entries and their growth inhibition
Assay: NCI Yeast Anticancer Drug Screen. Data for the bub3 strain (AID 167)
Conditions: S. cerevisiae bub3 mutant strain, at 50.0 µM, active compounds read high
The panel holds about 79,000 compounds, 15% with a hit somewhere; the sample as a whole holds those more often.
Express your answer in %, writing the number without its unit.

The following compounds have reported results that may help.
Lab book: growth inhibition of C=C(C)c1ccc(C(=C)C)cc1 noted as -23.9

Lab book: growth inhibition of COc1ccc(/C=C(\C#N)c2ccccc2NC(C)=O)cc1 noted as -10.5

Lab book: growth inhibition of CCN(CC)c1ccc(NC(C)=O)c(C)c1 noted as 18.1

Lab book: growth inhibition of CCN(CC)C(=O)CC1(O)CCCCC1 noted as 2.3

Lab book: growth inhibition of CC1(O)CC2C(CC1SCCO)C2(C)C (stereo not given) noted as -56

More entries:
Lab book: growth inhibition of CC1C(c2ccccc2O)c2cc3c(cc2OC1N1CCOCC1)OCO3 (stereo not given) noted as -18.2
